System: RS4-11
Test: Antiproliferative activity against human RS4:11 cells incubated for 48 hrs by MTT assay
Type: functional, cell-based
Settings: RS4-11, 48 h
measurement kind: pEC50
Notebook: values listed as pEC50 are -log10 of the concentration (mol/L).

Lookup: # value lookup — system RS4-11, readout pEC50, item `COC(=O)c1[nH]c2cc(O)ccc2c1-c1ccc(C(F)(F)F)cc1`
Found: 4.99

Lookup: Note, next up: `COc1ccc2c(-c3ccc(C(F)(F)F)cc3)c(C(=O)O)[nH]c2c1`
Found: 4.61

Lookup: Note, next up: `COC(=O)c1[nH]c2cc(OC)ccc2c1-c1ccc(Cl)c(Cl)c1`
Found: 5.42

Lookup: Note, next up: `COC(=O)c1[nH]c2cc(OC)ccc2c1-c1ccc(Br)cc1`
Found: 6.70

Lookup: Note, next up: `COC(=O)c1[nH]c2cc(OC)ccc2c1CC(C)C`
Found: 4.42

Lookup: Note, next up: `COC(=O)c1[nH]c2cc(OC)ccc2c1-c1ccc(C(F)(F)F)cc1`
Found: 6.52
